All figures here come from patent US9216991B2.

- assay system: IRAK4 (Homo sapiens, UniProt Q9NWZ3)
- Construct: His (N); TEV cleavage site (N)
- Sequence (Q9NWZ3 whole entry): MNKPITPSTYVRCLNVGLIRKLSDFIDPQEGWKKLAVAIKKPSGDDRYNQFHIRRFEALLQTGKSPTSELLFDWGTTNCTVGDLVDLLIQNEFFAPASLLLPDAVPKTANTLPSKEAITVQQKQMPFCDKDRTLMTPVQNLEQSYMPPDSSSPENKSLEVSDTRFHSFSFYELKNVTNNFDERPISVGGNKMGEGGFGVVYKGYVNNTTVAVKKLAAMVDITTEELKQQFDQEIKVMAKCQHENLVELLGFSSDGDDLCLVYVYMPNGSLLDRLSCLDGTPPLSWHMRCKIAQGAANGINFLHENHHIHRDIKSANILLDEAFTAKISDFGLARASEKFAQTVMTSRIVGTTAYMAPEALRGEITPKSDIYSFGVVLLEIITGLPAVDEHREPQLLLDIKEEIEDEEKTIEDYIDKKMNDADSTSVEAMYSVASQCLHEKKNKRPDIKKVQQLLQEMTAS
- assay details: IRAK4 Enzymatic Assay
- cond: His-TEV-IRAK4 20 ng/well, ATP 2 μM, STK1-biotin peptide 300 nM, 3 hours at 30° C., FlashPlate radioactivity
Structures can show the parent of a compound that is named as a salt.
Below is a list of entries, each paired with its recorded IC50 value.
assay endpoint: IC50

1. Cn1cc(-c2cccc(-c3ncc(-c4cnn(CC(=O)N5C[C@@H]6C[C@H]5CO6)c4)cn3)c2)cn1 = 100 to 1000 nM
2. CN(C)C(=O)[C@H]1CC[C@H](n2cc(-c3cnc(-c4cccc(-c5ccc(Cl)nn5)c4)nc3)cn2)CC1 = 1000 to 5000 nM
3. Cn1cc(-c2cccc(-c3ncc(-c4cnn(C5CCNCC5)c4)cn3)c2F)cn1 [Example 48, Formate] = 1000 to 5000 nM
4. CC(=O)Cn1cc(-c2cnc(-c3cccc(-c4cnn(C)c4)c3)nc2)cn1 = 100 to 1000 nM
5. CC(=O)N1CCCC(n2cc(-c3cnc(-c4cccc(-c5cnn(C)c5)c4)nc3)cn2)CC1 (centres unmarked) = 100 to 1000 nM

* * *

IC50 for assorted compounds
- assay system: IRAK4 (Homo sapiens, UniProt Q9NWZ3)
- Construct: His (N); TEV cleavage site (N)
- assay details: IRAK4 Enzymatic Assay
- cond: His-TEV-IRAK4 20 ng/well, ATP 2 μM, STK1-biotin peptide 300 nM, 3 hours at 30° C., FlashPlate radioactivity
Where a name gives a salt, the structure may show the parent alone.
assay endpoint: IC50

1) c1cc(-c2cn[nH]c2)cc(-c2ncc(-c3cnn(C4CCNCC4)c3)cn2)c1 [Example 18, hydrochloride] = < 100 nM
2) CCCn1cc(-c2cccc(-c3ncc(-c4cnn(C5CCNCC5)c4)cn3)c2)cn1 [Example 19, hydrochloride] = 100 to 1000 nM
3) CN(C)C(=O)C1CCC(n2cc(-c3cnc(-c4cccc(-c5cnn(C)c5)c4)nc3)cn2)CC1 (mixture of isomers) = < 100 nM
4) Cn1cc(-c2cccc(-c3ncc(-c4cnn(CC(F)F)c4)cn3)c2)cn1 = 100 to 1000 nM

* * *

- assay system: IRAK4 (Homo sapiens, UniProt Q9NWZ3)
- Construct: His (N); TEV cleavage site (N)
- assay details: IRAK4 Enzymatic Assay
- cond: His-TEV-IRAK4 20 ng/well, ATP 2 μM, STK1-biotin peptide 300 nM, 3 hours at 30° C., FlashPlate radioactivity
pIC50: −log10 of the molar value.
Reported pIC50 is given for each of the following compounds.
assay endpoint: pIC50

1. Cn1cc(-c2cccc(-c3ncc(-c4cnn(C5CCN(C6COC6)CC5)c4)cn3)c2)cn1 [Example 28] = 6.00 to 7.00
2. Cn1cc(-c2cccc(-c3ncc(-c4cnn(CC(=O)N5CC6(COC6)C5)c4)cn3)c2)cn1 [Example 55] = 6.00 to 7.00
3. Cn1cc(-c2cccc(-c3ncc(-c4cnn([C@H]5CC[C@H](N6CCOCC6=O)CC5)c4)cn3)c2)cn1 [Example 254] = > 7.00
4. CNC(=O)C(CCO)n1cc(-c2cnc(-c3cccc(-c4cnn(C)c4)c3)nc2)cn1 (stereo not shown) [Example 169] = 5.30 to 6.00
5. CNC(=O)c1nn(C)cc1-c1cnc(-c2cccc(-c3cnn(C)c3)c2)nc1 [Example 144] = 5.30 to 6.00
6. CN(C(=O)Cn1cc(-c2cnc(-c3cccc(-c4cnn(C)c4)c3)nc2)cn1)C1COC1 [Example 145] = 6.00 to 7.00
7. COC1CN(C(=O)CCn2cc(-c3cnc(-c4cccc(-c5cnn(C)c5)c4)nc3)cn2)C1 [Example 100] = 5.30 to 6.00
